ASSAY_SYSTEM: DC-SIGN ECD (Homo sapiens)
Sequence (Q9NNX6 64-404): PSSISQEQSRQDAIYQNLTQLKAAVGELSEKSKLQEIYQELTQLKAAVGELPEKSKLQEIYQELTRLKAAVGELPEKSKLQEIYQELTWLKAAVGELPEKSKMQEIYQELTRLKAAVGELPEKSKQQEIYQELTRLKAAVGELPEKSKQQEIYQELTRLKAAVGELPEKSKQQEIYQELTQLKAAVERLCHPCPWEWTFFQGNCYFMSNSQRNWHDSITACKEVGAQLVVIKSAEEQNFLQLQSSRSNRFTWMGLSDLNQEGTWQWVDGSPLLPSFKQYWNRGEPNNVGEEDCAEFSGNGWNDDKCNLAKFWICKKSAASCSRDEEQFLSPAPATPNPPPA
ASSAY_NAME: Plate-based horseradish peroxidase
Type: biochemical
pEC50: −log10 of the molar value.
METRIC_NAME: pEC50

>>> val("O=C(ON1C(=O)CCC1=O)c1cc(C(F)(F)F)cc(C(F)(F)F)c1")
4.52

* * *

ASSAY_SYSTEM: UniProt:Q9NNX6
METRIC_NAME: IC50 (mM)

>>> val("OC[C@H]1OC(O)[C@@H](O)[C@@H](O)[C@@H]1O (stereo partly shown) [mannose, reference compound]")
11.4
